Attribution: ChEMBL document CHEMBL1158404

System: Fusarium oxysporum
METHOD: Antifungal activity against Fusarium oxysporum f. sp. lupini at 20 ug/ml after 192 hrs relative to control
Type: functional
CONDITION INFO: read-out: GI
PARAMETER: inhibition of growth at 20 µg/mL

                                   compound      assayed_system                         parameter  observed_value
0  Cc1cc2c(c(O)c1-c1c(C)cc3c(c1O)/C(=C/NCCCN1CCCC1=O)C(=O)C(O)=C3C(C)C)/C(=C/NCCCN1CCCC1=O)C(=O)C(O)=C2C(C)C  Fusarium oxysporum  inhibition of growth at 20 µg/mL            0.6%
1  COCC/N=C/c1c(O)c(O)c(C(C)C)c2cc(C)c(-c3c(C)cc4c(c3O)C(/C=N/CCOC)C(=O)C(O)=C4C(C)C)c(O)c12 (stereo not drawn)  Fusarium oxysporum  inhibition of growth at 20 µg/mL            0.6%
2  Cc1cc2c(c(O)c1-c1c(C)cc3c(C(C)C)c(O)c(O)c(/C=N/N4CCN(C)CC4)c3c1O)C(/C=N/N1CCN(C)CC1)C(=O)C(O)=C2C(C)C (stereo not drawn)  Fusarium oxysporum  inhibition of growth at 20 µg/mL            1.3%

###

Tested on: Fusarium oxysporum
METHOD: Antifungal activity against Fusarium oxysporum f. sp. lupini at 20 ug/ml after 192 hrs
Type: functional
Radial growth inhibition of fungi (Ā) (mm) values for the molecules below.
PARAMETER: Radial growth inhibition of fungi (Ā) (mm)

MOLECULE	ASSAYED SYSTEM	UNITS TEXT	OBSERVED VALUE
Cc1cc2c(c(O)c1-c1c(C)cc3c(C(C)C)c(O)c(O)c(/C=N/N4CCN(C)CC4)c3c1O)C(/C=N/N1CCN(C)CC1)C(=O)C(O)=C2C(C)C (stereo unspecified)	Fusarium oxysporum	mm	58.5
Cc1cc2c(c(O)c1-c1c(C)cc3c(c1O)/C(=C/NCCc1cccs1)C(=O)C(O)=C3C(C)C)/C(=C/NCCc1cccs1)C(=O)C(O)=C2C(C)C	Fusarium oxysporum	mm	58.75
Cc1cc2c(C(C)C)c(O)c(O)c(C=O)c2c(O)c1-c1c(C)cc2c(C(C)C)c(O)c(O)c(C=O)c2c1O [GOSSYPOL]	Fusarium oxysporum	mm	46
COCCOC(C/N=C/c1c(O)c(O)c(C(C)C)c2cc(C)c(-c3c(C)cc4c(c3O)C(/C=N/CC(OCCOC)OCCOC)C(=O)C(O)=C4C(C)C)c(O)c12)OCCOC (stereo unspecified)	Fusarium oxysporum	mm	58.38
Cc1cc2c(c(O)c1-c1c(C)cc3c(c1O)/C(=C/NCCCN1CCOCC1)C(=O)C(O)=C3C(C)C)/C(=C/NCCCN1CCOCC1)C(=O)C(O)=C2C(C)C	Fusarium oxysporum	mm	58.63
CCOC(=O)N1CCC(N/C=C2\C(=O)C(O)=C(C(C)C)c3cc(C)c(-c4c(C)cc5c(c4O)/C(=C/NC4CCN(C(=O)OCC)CC4)C(=O)C(O)=C5C(C)C)c(O)c32)CC1	Fusarium oxysporum	mm	59

###

Listed here: items and their measured Radial growth inhibition of fungi (Ā) (mm).
Test system: Fusarium oxysporum
METHOD: Antifungal activity against Fusarium oxysporum f. sp. lupini at 0.1 ug/ml after 144 hrs
Type: functional
PARAMETER: Radial growth inhibition of fungi (Ā) (mm)

>>> df
                                 mol_smiles      assayed_system  observed_value
0  Cc1cc2c(C(C)C)c(O)c(O)c(C=O)c2c(O)c1-c1c(C)cc2c(C(C)C)c(O)c(O)c(C=O)c2c1O  Fusarium oxysporum           42.75
1  COCCOCCOCCN/C=C1\C(=O)C(O)=C(C(C)C)c2cc(C)c(-c3c(C)cc4c(c3O)/C(=C/NCCOCCOCCOC)C(=O)C(O)=C4C(C)C)c(O)c21  Fusarium oxysporum           39.25
2  CCCCOCCOCCN/C=C1\C(=O)C(O)=C(C(C)C)c2cc(C)c(-c3c(C)cc4c(c3O)/C(=C/NCCOCCOCCCC)C(=O)C(O)=C4C(C)C)c(O)c21  Fusarium oxysporum           36.75
3  Cc1cc2c(c(O)c1-c1c(C)cc3c(c1O)/C(=C/NCCOCCO)C(=O)C(O)=C3C(C)C)/C(=C/NCCOCCO)C(=O)C(O)=C2C(C)C  Fusarium oxysporum           40.38
4  C=CCN/C=C1\C(=O)C(O)=C(C(C)C)c2cc(C)c(-c3c(C)cc4c(c3O)/C(=C/NCC=C)C(=O)C(O)=C4C(C)C)c(O)c21  Fusarium oxysporum           41.63
